Origin of measurements: patent US20130217678A1

Tested on: human neuroblastoma cell lines SH-SY5Y treated with 1-methyl-4-phenylpyridinium (MPP+)
Test: Improvement of mitochondrial function (Alamar Blue mitochondrial oxidation reduction activity) in MPP+-treated SH-SY5Y cells
Type: cell-based
Conditions: compound 0.01 μg/ml, 1.5 mM MPP+, relative to cells in DMSO alone = 100%, read-out: Fluorescence Intensity (%)
Measured Attribute: activity at 0.01 µg/mL (%)
// units = %; emit number, no label

Examples with answers:
Mol Smiles	activity at 0.01 µg/mL [%]
CCCOc1ccc(C)c2c(=O)c(-c3ccncc3)c[nH]c12	51
CCCOc1cccc2c(=O)c(-c3ccccc3C(F)(F)F)c[nH]c12	49
COc1ccc(-c2c[nH]c3c(N4CCCC4)ccc(C)c3c2=O)cc1	49

-- ask Fill blank: measured activity at 0.01 µg/mL of the molecule "CCCOc1ccc(COC)c2c(=O)c(-c3ccc(OC)cc3)c[nH]c12" is ____.
-- reply 51
